Biological target: T1, TNFR1 (Homo sapiens, UniProt P19438)
T1 chain: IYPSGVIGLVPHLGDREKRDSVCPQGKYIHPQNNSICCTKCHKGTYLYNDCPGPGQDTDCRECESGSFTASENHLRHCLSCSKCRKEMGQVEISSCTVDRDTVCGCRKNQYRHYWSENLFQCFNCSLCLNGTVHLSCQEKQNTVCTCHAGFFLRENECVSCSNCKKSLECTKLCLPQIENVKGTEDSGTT
Assay: yeast display SC50
Measure Name: apparent Kd (screen) (pM)

P: A98Q (designed binder) MTLQELLREEALRRAEAEAFRYALELLAEKFPEQKEYLLDLAEEIESQIRSLSGVDVEDVRKFLDKEWAWVKELLAEHPAELAEVEAARAARLAELRQEVEAKVAA
Q: L93G (designed binder) MTLQELLREEALRRAEAEAFRYALELLAEKFPEQKEYLLDLAEEIESQIRSLSGVDVEDVRKFLDKEWAWVKELLAEHPAELAEVEAARAARGAELRAEVEAKVAA
Prompt line: # min-compare on apparent Kd (screen) between P and Q Let me know the label of the one you choose.
Response line: P
(P: 653 pM, Q: 1400 pM)

I: K103V (designed binder) MTLQELLREEALRRAEAEAFRYALELLAEKFPEQKEYLLDLAEEIESQIRSLSGVDVEDVRKFLDKEWAWVKELLAEHPAELAEVEAARAARLAELRAEVEAVVAA
II: E16F (designed binder) MTLQELLREEALRRAFAEAFRYALELLAEKFPEQKEYLLDLAEEIESQIRSLSGVDVEDVRKFLDKEWAWVKELLAEHPAELAEVEAARAARLAELRAEVEAKVAA
III: D56V (designed binder) MTLQELLREEALRRAEAEAFRYALELLAEKFPEQKEYLLDLAEEIESQIRSLSGVVVEDVRKFLDKEWAWVKELLAEHPAELAEVEAARAARLAELRAEVEAKVAA
Prompt line: List the 3 entries from lowest apparent Kd (screen) to highest apparent Kd (screen) value. Quick reminder: the answer is the labels in the order asked.
Response line: I, II, III
(I: 593 pM, II: 1050 pM, III: 2730 pM)

I: A90N (designed binder) MTLQELLREEALRRAEAEAFRYALELLAEKFPEQKEYLLDLAEEIESQIRSLSGVDVEDVRKFLDKEWAWVKELLAEHPAELAEVEAARNARLAELRAEVEAKVAA
II: A88V (designed binder) MTLQELLREEALRRAEAEAFRYALELLAEKFPEQKEYLLDLAEEIESQIRSLSGVDVEDVRKFLDKEWAWVKELLAEHPAELAEVEAVRAARLAELRAEVEAKVAA
Prompt line: # min-compare on apparent Kd (screen) between I and II Let me know the label of the one you choose.
Response line: I
(I: 653 pM, II: 956 pM)
